Cited source for all entries: ChEMBL document CHEMBL3039007

- Assayed Target: Solute carrier organic anion transporter family member 1B3 (Homo sapiens, UniProt Q9NPD5)
- Sequence (Q9NPD5 whole entry): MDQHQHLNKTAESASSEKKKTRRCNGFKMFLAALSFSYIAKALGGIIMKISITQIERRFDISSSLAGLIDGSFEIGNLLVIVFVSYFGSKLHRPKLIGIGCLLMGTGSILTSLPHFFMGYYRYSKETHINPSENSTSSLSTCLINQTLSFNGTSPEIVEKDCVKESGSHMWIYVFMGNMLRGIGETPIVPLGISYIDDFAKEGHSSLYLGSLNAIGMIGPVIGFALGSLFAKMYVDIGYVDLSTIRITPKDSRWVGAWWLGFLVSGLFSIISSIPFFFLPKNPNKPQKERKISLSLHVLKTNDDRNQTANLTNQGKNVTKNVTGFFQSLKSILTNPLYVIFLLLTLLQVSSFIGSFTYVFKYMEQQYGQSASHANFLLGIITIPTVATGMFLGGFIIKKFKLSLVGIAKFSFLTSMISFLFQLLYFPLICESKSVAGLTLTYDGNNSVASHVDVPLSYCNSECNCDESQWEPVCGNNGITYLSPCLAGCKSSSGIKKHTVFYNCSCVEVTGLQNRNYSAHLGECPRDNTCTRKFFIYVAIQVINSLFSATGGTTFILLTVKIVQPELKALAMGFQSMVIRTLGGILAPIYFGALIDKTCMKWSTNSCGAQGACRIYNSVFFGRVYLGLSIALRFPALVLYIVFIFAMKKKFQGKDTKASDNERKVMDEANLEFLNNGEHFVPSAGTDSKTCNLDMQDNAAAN
- Measurement Setup: chinese hamster, cho, 10 µM
Experimental Endpoint: residual activity (%)
Field format: number, assumed %, no unit text.

Form entry - test system: Solute carrier organic anion transporter family member 1B3 (Homo sapiens, UniProt Q9NPD5); read-out: residual activity; molecule: `O=S(=O)([O-])CCS.[Na+]` 97.81

Form entry - test system: Solute carrier organic anion transporter family member 1B3 (Homo sapiens, UniProt Q9NPD5); read-out: residual activity; molecule: `CN[C@@H](Cc1c[nH]c2ccccc12)C(=O)O` 98.3

Form entry - test system: Solute carrier organic anion transporter family member 1B3 (Homo sapiens, UniProt Q9NPD5); read-out: residual activity; molecule: CN(C)CCCN1c2ccccc2CCc2ccc(Cl)cc21.Cl [CLOMIPRAMINE HYDROCHLORIDE] 78.81

Form entry - test system: Solute carrier organic anion transporter family member 1B3 (Homo sapiens, UniProt Q9NPD5); read-out: residual activity; molecule: COC(=O)C[C@H]1C2(C)CC34OC5(C)O[C@@]6([C@H](OC)C(OC(=O)C(C)C)[C@]7(C)C(/C(=C(/OC)C(C)C)C(=O)O[C@H]7c7ccoc7)[C@@]6(O5)[C@H](OC)[C@@]3(OC)C2OC(C)=O)[C@]14C (stereo partly drawn) 3.762

Form entry - test system: Solute carrier organic anion transporter family member 1B3 (Homo sapiens, UniProt Q9NPD5); read-out: residual activity; molecule: `CS(C)(=O)=O` 102.7

Form entry - test system: Solute carrier organic anion transporter family member 1B3 (Homo sapiens, UniProt Q9NPD5); read-out: residual activity; molecule: `Oc1ccc(/C=C/c2cc(O)cc(O)c2)cc1` 116.7

Form entry - test system: Solute carrier organic anion transporter family member 1B3 (Homo sapiens, UniProt Q9NPD5); read-out: residual activity; molecule: COc1cc2c(cc1OC)C1C(=O)c3c(cc4c(c3O)C=CC(C)(C)O4)OC1CO2 (stereo not drawn) 70.52

Form entry - test system: Solute carrier organic anion transporter family member 1B3 (Homo sapiens, UniProt Q9NPD5); read-out: residual activity; molecule: Sc1ncnc2nc[nH]c12 [MERCAPTOPURINE ANHYDROUS] 105.3
